FYI, the data here is from patent US20240342214A1.

Biological target: T1, human ENTPD3 (Ectonucleoside triphosphate diphosphohydrolase 3) expressed on cells (human, UniProt O75355 1-529)
T1 construct: also called hENTPD3; huENTPD3
T1 sequence: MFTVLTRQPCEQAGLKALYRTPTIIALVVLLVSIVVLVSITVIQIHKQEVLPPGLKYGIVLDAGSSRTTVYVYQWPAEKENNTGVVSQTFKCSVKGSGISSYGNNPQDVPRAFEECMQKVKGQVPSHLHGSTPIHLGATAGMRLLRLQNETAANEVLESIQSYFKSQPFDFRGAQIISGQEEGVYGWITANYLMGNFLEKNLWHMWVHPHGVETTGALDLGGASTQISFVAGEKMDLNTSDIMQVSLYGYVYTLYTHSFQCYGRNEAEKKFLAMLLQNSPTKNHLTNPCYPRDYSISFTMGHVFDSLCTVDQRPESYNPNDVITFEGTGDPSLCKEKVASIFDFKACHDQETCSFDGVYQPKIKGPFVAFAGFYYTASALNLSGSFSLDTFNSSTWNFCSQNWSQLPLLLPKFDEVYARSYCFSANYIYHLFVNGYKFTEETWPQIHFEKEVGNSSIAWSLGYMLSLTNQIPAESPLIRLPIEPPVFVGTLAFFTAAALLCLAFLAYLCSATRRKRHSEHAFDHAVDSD
Assay: flow cytometry; soluble scFv on transfected HEK293T cells; anti-His PE
ENDPOINT LABEL: binding result

## Input Look at this binder and give its reported binding result. hg012-C6 scFv (scFv, Soluble scFv made in E. coli, with Myc tag and His tag) scFv: EVQLVQSGGGLVQPGRSLRLSCTASGFTFGDYAMSWVRQAPGKGLEWVGFIRSKAYGGTTEYAASVKGRFTISRDDSKSIAYLQMNSLKTEDTAVYYCTRVPVVAGWYNWFDPWGQGTLVTVSSGSASAPKLEEGEFSEARVQSVLTQPPSASGTPGQRVTISCSGSSSNIGSNYVYWYQQLPGTAPKLLIYRNNQRPSGVPDRFSGSKSGNTASLTVSGLQAGDEADYYCSSYAGSNNVVFGGGTKLAVLGQPKAAPSVTLFPPSSAAAGSEQKLISEEDLSHHHHHH
## Output binds
